Catalogue of TGI values
System: SNB-19 CNS
Assay Details: NCI tumour cell line growth inhibition, 48 h

INPUT: State its TGI: `c1ccc([I+]c2ccccc2)cc1`
OUTPUT: > 100 µM

INPUT: State its TGI: COC(=O)C(CC1=C(O)Nc2ccccc2N1)/C(=N/NC(N)=O)C(=O)Nc1ccccc1C (stereo unspecified)
OUTPUT: > 100 µM

INPUT: State its TGI: `CN(C)c1ccc(C=C2C(=O)NC(=S)NC2=O)c2ccccc12`
OUTPUT: > 100 µM

INPUT: State its TGI: `Cc1n(Cc2ccccc2)nc2sc(N)n[n+]12`
OUTPUT: > 100 µM

INPUT: State its TGI: CC(=O)OC(Cc1c(O)c2c(C)cccc2oc1=O)C(C)(C)O (stereo unspecified)
OUTPUT: > 100 µM

INPUT: State its TGI: COC(=O)C12OC3CO[Si](C(C)C)(C(C)C)O[Si](C(C)C)(C(C)C)OC3C1Oc1nc(=O)ccn12 (stereo unspecified)
OUTPUT: 31.2 µM

----------
Test system: NCI-H23 lung
Assay Details: NCI tumour cell line growth inhibition, 48 h
Catalogue of GI50 values

Reference set (8 entries):
INSERT INTO assay_data (compound, assay_target, result) VALUES
  ('O=S(=O)(c1cccc2c(I)cccc12)N1CCCNCC1', 'NCI-H23 lung', '17 µM'),
  ('Cc1[nH]c(=O)nc(Nc2ccc(Cl)cc2)c1C(=O)N1CCN(CCO)CC1', 'NCI-H23 lung', '76 µM'),
  ('O=c1c(O)c(-c2ccc(O)c(O)c2)oc2cc(O)cc(O)c12', 'NCI-H23 lung', '9.65 µM'),
  ('CCN1C(=O)N(CC)C2C1NN=c1s/c(=C\c3ccccn3)c(=O)n12 (stereo not given)', 'NCI-H23 lung', '3.82 µM'),
  ('Nc1c(C(=O)c2cccc(-c3cccnc3)c2)cnn1-c1ccc(F)cc1F', 'NCI-H23 lung', '4.41 µM'),
  ('COc1ccc(CC(=O)c2ccc(O)cc2O)cc1', 'NCI-H23 lung', '63.5 µM'),
  ('COC(=N)c1c(N)[n+]([O-])c2ccc(F)cc2[n+]1[O-]', 'NCI-H23 lung', '> 100 µM'),
  ('CCC[CH2][Sn]1([CH2]CCC)[O]C2C(CO)OC(n3ccc(N)nc3=O)C2[O]1 (stereo not given)', 'NCI-H23 lung', '1.35 µM');

INPUT: State its GI50: `COC(=O)Nc1nc2ccc(Oc3cccc(NC(=O)Nc4cc(C(F)(F)F)ccc4F)c3)cc2[nH]1`
OUTPUT: 11.3 µM

INPUT: State its GI50: `C[CH2][Sn]([CH2]C)([O]C(=O)c1ccccc1F)[O][Sn]([CH2]C)([CH2]C)[O]C(=O)c1ccccc1F`
OUTPUT: 15.8 µM

----------
System: OVCAR-4 ovarian
Assay Details: NCI tumour cell line growth inhibition, 48 h; in the data active = GI50 below about 0.43 µM; inactive = the rest
Would you mind answering with one of these outcomes? active, inactive

Use the examples below as a reference point.
INSERT INTO results (compound, assay_target, assigned_label) VALUES
  ('CCc1ccc2c(c1)C(=O)c1c-2n(CCCN=[N+]=[N-])c(=O)c2cc(OC)c(OC)cc12', 'OVCAR-4 ovarian', 'inactive'),
  ('Cc1ccc(-c2csc(NC(=O)N3CCN(c4cc5c(cc4F)c(=O)c(C(=O)O)cn5C4CC4)CC3)n2)cc1', 'OVCAR-4 ovarian', 'inactive'),
  ('O=[N+]([O-])c1ccc(N=Nc2ccc(O)c3ccccc23)cc1', 'OVCAR-4 ovarian', 'inactive');

INPUT: Kindly provide the recorded test outcome for the following compound: `C#CCNCCN1C(=O)c2ccc3c4c(ccc(c24)C1=O)C(=O)N(CCNCC#C)C3=O`
OUTPUT: inactive

INPUT: Kindly provide the recorded test outcome for the following compound: `Cc1nn(-c2ccc([N+](=O)[O-])cc2)c2ncnc(N/N=C/c3ccccc3O)c12`
OUTPUT: active

INPUT: Kindly provide the recorded test outcome for the following compound: `Cc1cnc(CNC(=O)c2c(=O)c3ccc(N4CCCN(C)CC4)nc3n3c2sc2ccccc23)cn1`
OUTPUT: inactive

INPUT: Kindly provide the recorded test outcome for the following compound: `Cc1ccc(-c2nc3nc(-c4ccccc4)nc(N4CCNCC4)c3o2)cc1`
OUTPUT: inactive

INPUT: Kindly provide the recorded test outcome for the following compound: C=C1CC[C@@H]2[C@](C)(COC(C)=O)[C@H](OC(C)=O)CC[C@@]2(C)[C@@H]1CC(Nc1ccc(S(=O)(=O)Nc2ccc(Cl)nn2)cc1)C1=CCOC1=O (stereo partly drawn)
OUTPUT: inactive
